# System: HCI01 (cells of a triple-negative basal-like breast cancer xenograft);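 also: PDX cells carrying CMV promoter-driven luciferase, viability read as total photon flux per second by IVIS imaging following D-luciferin, vehicle control 0.1% DMSO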
# measurementNotes: cell viability (% of vehicle); higher = less cytotoxic
# conditionSet: 10 µM; 72 h
measuredProperty: cell viability

Exam item: Give cell viability (HCI01) of the following compound: COc1cc(C(=O)NC2CCCNC2)cc(OC)c1OC (stereo not drawn) [Troxipide]
Marked response: 98.8

Exam item: Give cell viability (HCI01) of the following compound: C#C[C@]1(O)CC[C@H]2[C@@H]3CCC4=CCCC[C@@H]4[C@H]3C(=C)C[C@@]21CC [Desogestrel]
Marked response: 94.9

Exam item: Give cell viability (HCI01) of the following compound: Nc1ccn(C2OC(CO)C(O)C2O)c(=O)n1 (stereo not drawn) [Cytidine]
Marked response: 101

Next:
Exam item: Give cell viability (HCI01) of the following compound: Cc1ccc(NC(=O)c2ccc(CN3CCN(C)CC3)cc2)cc1Nc1nccc(-c2cccnc2)n1 [Imatinib (STI571)]
Marked response: 87.1

Exam item: Give cell viability (HCI01) of the following compound: O=C1NC(=O)C(c2ccccc2)(c2ccccc2)N1 [Phenytoin]
Marked response: 106

Exam item: Give cell viability (HCI01) of the following compound: CCCC(NC(C)C(=O)N1C(C(=O)O)CC2CCCCC21)C(=O)OCC (stereo not drawn) [Perindopril]
Marked response: 110

Exam item: Give cell viability (HCI01) of the following compound: Cc1c(C(=O)Nc2ccc(N3CC(C)OC(C)C3)nc2)cccc1-c1ccc(OC(F)(F)F)cc1 (stereo not drawn) [LDE225 (NVP-LDE225,Erismodegib)]
Marked response: 98.3

Exam item: Give cell viability (HCI01) of the following compound: NCCCC(O)(P(=O)([O-])O)P(=O)(O)O.O.O.O.[Na+] [Alendronate]
Marked response: 89.6
